TARGET DESC: human TRPC5 (Homo sapiens, UniProt Q9UL62)
Construct: expressed in transfected cells
Sequence (Q9UL62 1-973): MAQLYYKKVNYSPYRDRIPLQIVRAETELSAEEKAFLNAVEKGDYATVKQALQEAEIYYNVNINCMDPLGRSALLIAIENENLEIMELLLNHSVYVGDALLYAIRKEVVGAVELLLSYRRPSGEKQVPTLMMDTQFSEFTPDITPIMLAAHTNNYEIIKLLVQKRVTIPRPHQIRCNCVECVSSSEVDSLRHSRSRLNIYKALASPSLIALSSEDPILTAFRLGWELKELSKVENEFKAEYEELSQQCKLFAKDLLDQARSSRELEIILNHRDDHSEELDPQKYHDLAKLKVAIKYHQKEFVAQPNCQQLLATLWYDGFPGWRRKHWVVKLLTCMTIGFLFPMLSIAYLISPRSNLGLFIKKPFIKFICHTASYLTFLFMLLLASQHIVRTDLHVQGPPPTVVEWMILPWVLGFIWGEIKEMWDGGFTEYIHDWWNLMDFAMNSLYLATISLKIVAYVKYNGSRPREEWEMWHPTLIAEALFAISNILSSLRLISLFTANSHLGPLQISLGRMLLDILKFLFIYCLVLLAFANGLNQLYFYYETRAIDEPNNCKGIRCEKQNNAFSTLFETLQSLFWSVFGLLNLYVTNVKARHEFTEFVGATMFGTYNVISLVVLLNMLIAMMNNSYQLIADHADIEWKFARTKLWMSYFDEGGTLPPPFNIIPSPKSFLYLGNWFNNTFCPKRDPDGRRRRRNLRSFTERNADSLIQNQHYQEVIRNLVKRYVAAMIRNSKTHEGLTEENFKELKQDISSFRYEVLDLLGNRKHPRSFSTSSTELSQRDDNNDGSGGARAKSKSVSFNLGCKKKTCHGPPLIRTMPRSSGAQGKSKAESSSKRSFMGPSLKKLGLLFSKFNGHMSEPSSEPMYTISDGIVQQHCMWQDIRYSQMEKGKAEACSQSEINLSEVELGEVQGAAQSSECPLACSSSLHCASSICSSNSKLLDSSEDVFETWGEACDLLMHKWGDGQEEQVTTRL
PROTOCOL DESCRIPTION: Gd3+-evoked Ca2+ entry in TRPC5-expressing (Tet+) HEK 293 cells
Assay type: cell-based
MEASUREMENT CONTEXT: TRPC5 (Tet+) HEK 293, 50 μM Gd3+, fluo-4, 30 min pretreatment; read-out: IC50, inhibition of Gd3+-evoked Ca2+ entry
MEASUREMENT LABEL: IC50

Solved entries:
O=c1c(O)c(-c2ccc(O)cc2)oc2cc(O)cc(O)c12 [Kaempferol] ... 3.9 µM
O=c1c(O)c(-c2ccc(O)c(O)c2)oc2cc(O)cc(O)c12 [Quercetin] ... 6.5 µM
O=c1c(O)c(-c2ccccc2)oc2cc(O)cc(O)c12 [Galangin] ... 0.45 µM
O=c1cc(-c2ccc(O)c(O)c2)oc2cc(O)cc(O)c12 [Luteolin] ... > 10 µM

In the following, a different compound is considered.
QUERY: Let me know recorded IC50 for O=c1c(O)c(-c2cc(O)c(O)c(O)c2)oc2cc(O)cc(O)c12 [Myricetin] , thanks.
RESULT: > 10 µM

###

TARGET DESC: endogenous TRPC5-containing channels (Mus musculus, UniProt Q9QX29)
Sequence (Q9QX29 whole entry): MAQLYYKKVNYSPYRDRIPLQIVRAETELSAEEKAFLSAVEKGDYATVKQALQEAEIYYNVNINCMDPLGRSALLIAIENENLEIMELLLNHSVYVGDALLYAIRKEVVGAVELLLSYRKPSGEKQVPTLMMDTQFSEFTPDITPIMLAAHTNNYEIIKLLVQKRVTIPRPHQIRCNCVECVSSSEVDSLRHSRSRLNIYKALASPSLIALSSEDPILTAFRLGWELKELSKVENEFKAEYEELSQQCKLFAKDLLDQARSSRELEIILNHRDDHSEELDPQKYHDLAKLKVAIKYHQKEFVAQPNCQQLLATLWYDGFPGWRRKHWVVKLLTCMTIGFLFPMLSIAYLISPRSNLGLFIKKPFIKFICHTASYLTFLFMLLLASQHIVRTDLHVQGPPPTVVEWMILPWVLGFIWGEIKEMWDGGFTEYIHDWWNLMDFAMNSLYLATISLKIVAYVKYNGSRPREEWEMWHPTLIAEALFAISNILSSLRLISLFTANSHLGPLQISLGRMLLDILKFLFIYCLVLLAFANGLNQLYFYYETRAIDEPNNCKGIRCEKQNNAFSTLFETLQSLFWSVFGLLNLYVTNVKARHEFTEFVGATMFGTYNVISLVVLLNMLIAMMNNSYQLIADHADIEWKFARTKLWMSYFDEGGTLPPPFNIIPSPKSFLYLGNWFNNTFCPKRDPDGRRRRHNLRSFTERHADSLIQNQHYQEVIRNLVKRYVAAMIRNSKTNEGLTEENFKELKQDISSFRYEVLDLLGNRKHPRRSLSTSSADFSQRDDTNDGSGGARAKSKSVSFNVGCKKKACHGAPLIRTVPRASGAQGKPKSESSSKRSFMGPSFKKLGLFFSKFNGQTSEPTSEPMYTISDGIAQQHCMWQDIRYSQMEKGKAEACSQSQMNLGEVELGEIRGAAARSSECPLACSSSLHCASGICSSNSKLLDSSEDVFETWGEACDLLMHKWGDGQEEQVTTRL
Sequence (Q61056 whole entry partner): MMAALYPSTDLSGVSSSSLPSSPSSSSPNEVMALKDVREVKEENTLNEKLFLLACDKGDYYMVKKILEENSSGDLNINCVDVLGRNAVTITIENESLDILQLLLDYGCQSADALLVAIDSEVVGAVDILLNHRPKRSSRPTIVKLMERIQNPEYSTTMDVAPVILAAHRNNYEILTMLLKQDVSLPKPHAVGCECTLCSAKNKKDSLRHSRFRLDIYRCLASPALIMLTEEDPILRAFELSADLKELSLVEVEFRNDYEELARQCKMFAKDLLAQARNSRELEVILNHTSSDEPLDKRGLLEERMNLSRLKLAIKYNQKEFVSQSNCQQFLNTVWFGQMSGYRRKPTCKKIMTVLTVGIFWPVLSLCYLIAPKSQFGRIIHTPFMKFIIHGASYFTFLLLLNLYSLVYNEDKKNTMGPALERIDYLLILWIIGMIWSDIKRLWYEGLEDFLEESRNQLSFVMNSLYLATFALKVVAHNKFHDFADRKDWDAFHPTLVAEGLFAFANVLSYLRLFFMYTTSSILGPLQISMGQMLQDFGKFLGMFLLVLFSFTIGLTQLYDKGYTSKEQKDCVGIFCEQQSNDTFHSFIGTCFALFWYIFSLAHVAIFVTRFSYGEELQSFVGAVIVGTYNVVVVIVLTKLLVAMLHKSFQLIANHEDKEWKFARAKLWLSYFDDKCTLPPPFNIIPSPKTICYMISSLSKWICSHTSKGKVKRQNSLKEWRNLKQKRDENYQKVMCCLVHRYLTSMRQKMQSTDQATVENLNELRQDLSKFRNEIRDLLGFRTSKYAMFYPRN
PROTOCOL DESCRIPTION: Ca2+ entry through endogenous channels in differentiated 3T3-L1 cells
Assay type: cell-based
MEASUREMENT CONTEXT: fluo-4, 20 μM La3+, estimated, read-out: IC50 for inhibition of La3+-evoked Ca2+ entry
MEASUREMENT LABEL: IC50 (µM)
Write the answer as a number in µM, unit excluded.

QUERY: Let me know recorded IC50 for "O=c1c(O)c(-c2ccccc2)oc2cc(O)cc(O)c12" , thanks.
RESULT: 6.05

The reported measurements were obtained from paper PMC4728423.
